What koff was measured for each of the following?
molecular target: T1, human soluble urokinase plasminogen activator receptor (hsuPAR) (human, UniProt Q03405 23-303, limits assumed); assay: BLI (Octet) off-rate screen of scFv clones
T1 construct: Target antigen of the off-rate screen; also called human suPAR; rhuPAR-His
T1 sequence (Q03405 23-303 limits assumed): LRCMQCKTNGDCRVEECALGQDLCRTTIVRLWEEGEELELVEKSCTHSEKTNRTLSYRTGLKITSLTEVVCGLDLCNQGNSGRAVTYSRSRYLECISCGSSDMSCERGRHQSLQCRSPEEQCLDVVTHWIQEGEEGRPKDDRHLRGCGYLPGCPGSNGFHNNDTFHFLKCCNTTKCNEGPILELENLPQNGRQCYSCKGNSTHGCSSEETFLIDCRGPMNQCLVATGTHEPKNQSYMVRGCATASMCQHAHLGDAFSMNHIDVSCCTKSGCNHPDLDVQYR

Look over these answered cases.
1. suPAR_DB03_B04 (scFv, V domains shown, screened as scFv) VH: QVQLVQSGAEVKKPGASVKVSCKASGYTFTGYYMHWVRQAPGQGLEWIGWITPDSGGTVYAQKFQGRVTMTRDTSTSTVYMELSSLRSEDTAVYYCARGYDVDWFVYWGQGTLVTVSS VL: DIQMTQSPSSLSASVGDRVTITCSASSSISYMYWYQQKPGKAPKLLIYRTSNLASGVPSRFSGSGSGTDFTLTISSLQPEDFATYYCQQYHSYPPTFGGGTKVEIK; 0.00197 s⁻¹
2. suPAR_DB03_A05 (scFv, V domains shown, screened as scFv) VH: QVQLVQSGAEVKKPGASVKVSCKASGYTFSSYYMHWVRQAPGQGLEWMGWIDHENGNTIYAQKFQGRVTMTRDTSTSTVYMELSSLRSEDTAVYYCARGYDVDWFVYWGQGTLVTVSS VL: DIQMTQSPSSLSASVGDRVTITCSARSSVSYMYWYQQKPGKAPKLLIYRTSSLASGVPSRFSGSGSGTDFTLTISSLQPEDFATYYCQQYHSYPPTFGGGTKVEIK; 0.0026 s⁻¹

# context switch: different binder, same koff
What value of koff has been reported for the following binder? suPAR_DB03_A09 (scFv, V domains shown, screened as scFv) VH: QVQLVQSGAEVKKPGASVKVSCKASGYTFTSHYVHWVRQAPGQGLEWMGWIDHSNGSTIYDQKFQGRVTMTRDTSTSTVYMELSSLRSEDTAVYYCARGYDVDWFVYWGQGTLVTVSS VL: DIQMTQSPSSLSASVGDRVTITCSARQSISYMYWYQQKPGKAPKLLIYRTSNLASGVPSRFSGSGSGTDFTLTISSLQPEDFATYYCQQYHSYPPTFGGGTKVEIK 0.00132 s⁻¹

Source listed as patent US20250215104A1.
